Can you tell me TGI for the items I'm about to list?
System: HCT-15 colon
PROCEDURE SUMMARY: NCI tumour cell line growth inhibition, 48 h
Output spec: scalar in µM, unitless text.

Quick one: TGI for OCC#Cc1ccccc1C#CCCCCCCC#Cc1ccccc1C#CCO ?
59.6

Value lookup for TGI; key = Clc1ccc(N2CCN(CCCN3CCN(c4cccc(Cl)c4)CC3)CC2)cc1
22.4

Quick check: TGI of CCOc1ccc2nc(S/C(=C/C=C(C#N)C#N)c3ccc(Cl)cc3)sc2c1 ?
8.81

* * *

System: NCI/ADR-RES ovarian
PROCEDURE SUMMARY: NCI tumour cell line growth inhibition, 48 h
ASSAY READOUT: TGI

Quick one: TGI for CC1=NN(c2nc(N)nc(COCc3nc(N)nc(N4N=C(C)CC4(C)C)n3)n2)C(C)(C)C1 ?
> 100 µM

Look up TGI: CCCCCCCc1c(Cl)nc(Cl)nc1Cl
13.3 µM

Given the entry O=C(O)c1c(-c2ccccc2)c(=O)[nH]c2ccccc12 , report its measured TGI.
> 100 µM

Request the reported TGI associated with O=C(CCN1CCCCC1)Nc1ccc2sc3ccccc3c(=O)c2n1
73.9 µM

GET /values?readout=TGI&item= N#Cc1cc(-c2nc3ccc(F)cc3s2)ccc1N
> 100 µM

Give its TGI value. Item: Cc1ncc(CO)c(C=NCCCCCCN=Cc2c(CO)cnc(C)c2[O-])c1[O-].[Cu+2]
> 100 µM

May I ask what TGI has been recorded for N#Cc1c(-c2ccc(Cl)cc2)cc(-c2ccc(Nc3ccnc4cc(C(F)(F)F)ccc34)cc2)nc1N ?
> 100 µM

Could you share which TGI value was measured for CCC(=O)O[C@H]1CC[C@H]2[C@@H]3CCC4=CC(=O)C=C[C@]4(O)[C@H]3CC[C@]12C ?
91.9 µM

Need TGI, item COc1ccc(N=Nc2c(O)ccc3ccccc23)cc1
> 100 µM

Field request: TGI | item: NC(=O)c1c2c(n3ccccc13)C(=O)c1ccccc1C2=O
> 100 µM

Record request: TGI value, item N#Cc1ccc(Oc2nc3ccccc3nc2C(=O)O)cc1
> 100 µM
